# Tested on: HepG2 2D monolayer
# assay_overview: Sensitivity to hepatotoxins, CellTiter-Glo ATP viability, 2D monolayer
# Type: cell-based
# test_settings: Homo sapiens, 24-h acute dosing, estimated from graphs
Readings of IC50 for the listed compounds
experimental_endpoint: IC50

1) O=C(O)Cc1ccccc1Nc1c(Cl)cccc1Cl | > 400 µM
2) O=c1[nH]c(=O)n([C@@H]2O[C@H](CO)[C@@H](O)[C@@H]2F)cc1I | > 200 µM
3) N[C@@H]1[C@H]2CN(c3nc4c(cc3F)c(=O)c(C(=O)O)cn4-c3ccc(F)cc3F)C[C@@H]12 | > 400 µM
4) CC(=O)Nc1ccc(O)cc1 | > 10000 µM

The origin of these recorded values is paper PMC9360078.
